These measurements were taken from ChEMBL document CHEMBL1201862.

Test system: K562
Assay: NCI tumour cell line growth inhibition, 48 h
Calls of active or inactive are those of the source. Cut-off read from the data, not from the text of the source: active = GI50 up to about 1.1 µM and inactive = higher.
Choose the fitting class; nothing outside true for active, false for inactive is accepted.

NC(CCC(=O)NC(CSCC1C(=O)Nc2ccccc21)C(=O)NCC(=O)O)C(=O)O (centres undefined) ... false
O=C(NN=C1NCCN1)c1ccco1 ... false
CCC(C)C(N)C(=O)NC(CC(N)=O)C(=O)NC(CC(C)C)C(=O)NC(CCCCN)C(=O)NC(C)C(=O)NC(CC(C)C)C(=O)NC(C)C(=O)NC(C)C(=O)NC(CC(C)C)C(=O)NC(C)C(=O)NC(CCCCN)C(=O)NC(CCCCN)C(=O)NC(C(=O)NC(CC(C)C)C(N)=O)C(C)CC (centres undefined) ... false
O=C(CSc1nnc(Cc2ccccc2)o1)Nc1ccccc1Cl ... false

Qu. Lab log entry: CN(C)N1C(=C(C#N)C#N)C(c2ccccc2)CC1C#N (centres undefined) — outcome as called in the assay?
Ans. false

Qu. Recorded test call requested for O=C1Cc2c([nH]c3ccc(Br)cc23)-c2cc(O)c(O)cc2N1
Ans. false

Qu. Please share the test call associated with Cc1cc(O)nc(CNC(=O)Cc2ccccc2)n1 .
Ans. false

Qu. Dear colleague, could you share the recorded outcome for COC(=O)c1cc(C)ccc1/C=C1\Cc2c(C)cc(C)cc2C1=O when you have a moment?
Ans. false

Qu. Record request — test call for C(=C\c1ccc(-c2cn3cc(/C=C/C=N/NC4=NCCN4)ccc3n2)cc1)/C=N/NC1=NCCN1
Ans. true

====

Test system: NCI-H226
Assay: NCI tumour cell line growth inhibition, 48 h
Active and inactive are the calls of the source. Cut-off read from the data, not from the text of the source: active = GI50 up to about 1.1 µM and inactive = higher.
PROPERTY: GI50

CCC(C)C(N)C(=O)NC(CC(N)=O)C(=O)NC(CC(C)C)C(=O)NC(CCCCN)C(=O)NC(C)C(=O)NC(CC(C)C)C(=O)NC(C)C(=O)NC(C)C(=O)NC(CC(C)C)C(=O)NC(C)C(=O)NC(CCCCN)C(=O)NC(CCCCN)C(=O)NC(C(=O)NC(CC(C)C)C(N)=O)C(C)CC (centres undefined) ... 14.5 µM (inactive)
O=C1CSC(c2cccc(Oc3ccccc3)c2)N1c1cccc(Cl)c1Cl (centres undefined) ... 28.5 µM (inactive)
Cc1ccc(C2=CC(=O)OC(C[P+](c3ccccc3)(c3ccccc3)c3ccccc3)(c3ccccc3)O2)cc1 (centres undefined) ... 27.1 µM (inactive)

Qu. // fetch NCI-H226 GI50 for CN(C)N1C(=C(C#N)C#N)C(c2ccccc2)CC1C#N (centres undefined)
Ans. > 100 µM (inactive)

Qu. Report GI50 for CCC1c2[nH]c3ccccc3c2C[C@H]2C(=O)NC(Cc3c[nH]c4ccccc34)C(=O)N12 (some centres undefined) tested on NCI-H226.
Ans. 32.7 µM (inactive)

Qu. Missing value: GI50, NCI-H226, entry Cc1cnc(Cl)nc1C(C#N)c1nc2ccccc2s1 (centres undefined) . Fill in?
Ans. 14.7 µM (inactive)

Qu. What GI50 appears in the records for this compound with NCI-H226? Cc1ccccc1NC(=N)Nc1ccccc1C
Ans. > 100 µM (inactive)

Qu. Which measured GI50 belongs to CCC(C)(C)NS(=O)(=O)c1ccccc1 , tested on NCI-H226?
Ans. > 10 µM (inactive)

Qu. What GI50 appears in the records for this compound with NCI-H226? O=[N+]([O-])c1ccc(C[P+]2(c3ccccc3)CCCCC2)cc1.[O-][Cl+3]([O-])([O-])[O-]
Ans. > 100 µM (inactive)

====

Test system: MDA-MB-435
Assay: NCI tumour cell line growth inhibition, 48 h
Calls of active or inactive are those of the source. Cut-off read from the data, not from the text of the source: active = GI50 up to about 1.1 µM and inactive = higher.
PROPERTY: GI50

Use these answered entries as a reference point.
N#CC(C#N)=C1CCCS(=O)(=O)c2ccccc21 ... > 100 µM (inactive)
CN1CC=C(C#CC(C)(C)O)CC1 ... > 37.5 µM (inactive)
COc1cc(O)c2c(=O)c(OC)c(-c3ccc4c(c3)OCO4)oc2c1OC ... > 50 µM (inactive)
O=C(O)CCCc1ccc2c(c1)CC1(C2)Cc2cc3c(cc2C1)CCCC3 ... 17.3 µM (inactive)
COCc1nc(C#N)c(N)o1 ... > 10 µM (inactive)

Qu. Quick check: GI50 of CC(=O)OCC(OC(C)=O)C(OC(C)=O)C(/C=N/N(C(C)=O)S(=O)(=O)c1ccc(/C=C2\NC(=O)NC2=O)cc1)OC(C)=O (stereo not drawn) ?
Ans. > 100 µM (inactive)

Qu. Looking for the measured GI50 of CC1CC[C@@]2(OC1)O[C@H]1C[C@H]3[C@@H]4CC[C@H]5C[C@@H](OC6OC(CO)C(OC7OC(CO)C(OC8OC(CO)C(O)C(OC9OC(C)C(OC%10OC(C)C(O)C(O)C%10O)C(O)C9O)C8OC8OCC(O)C(O)C8O)C(O)C7O)C(O)C6O)CC[C@]5(C)[C@H]4CC(=O)[C@]3(C)[C@H]1[C@@H]2C (stereo partly drawn) , can you help?
Ans. 18.7 µM (inactive)

Qu. Given COc1ccc(-n2c(=O)c3nc[nH]c3n(-c3ccc(OC)cc3)c2=S)cc1 , state its recorded GI50.
Ans. > 100 µM (inactive)

====

Test system: SR
Experiment: NCI tumour cell line growth inhibition, 48 h
Activity calls are given as the source filed them. Rule as the data show it: active = GI50 up to about 1.1 µM and inactive = higher.
Log the outcome using a class from active, inactive

Reference set, count: 6
CCC1c2[nH]c3ccccc3c2C[C@H]2C(=O)NC(Cc3c[nH]c4ccccc34)C(=O)N12 (stereo partly specified) ... inactive
COc1cc2c[n+](C)c3c4cc(OC)c(OCc5ccccc5)cc4c(OCc4ccccc4)cc3c2cc1OC ... inactive
COc1cccc(-c2cc(=O)c3ccc(C)nc3[nH]2)c1 ... active
O=C(c1ccccc1)c1nc2ccc(Cl)cc2c2c1CCCO2 ... inactive
O=C1N[C@H]2c3c(Cl)sc(Cl)c3C(=O)[C@H]2O1 ... inactive
C=CC(C)(C)n1cc(C2=C3OC(=O)C(c4cn(C(C)(C)C=C)c5ccccc45)=C3OC2=O)c2ccccc21 ... inactive

Qu. Outcome? O=C1NC(=O)C2C3C=CC(C12)C1C2C(=O)NC(=O)C2C31 (stereo unspecified)
Ans. inactive

Qu. Query: recorded result category for CCOC1CC(C)N(C(=O)c2ccccc2)O1 (stereo unspecified) in this test
Ans. inactive

Qu. Each compound tested received a call. Report the one for COc1cccc2c1C(=O)C1=C(C2=O)C(O)CC(C)(C)O1 (stereo unspecified) .
Ans. inactive

Qu. State the result this test recorded for Cn1ccnc1Sc1ccc(/C=N/c2ccc3nc(SCC(=O)NC4CCCCC4)sc3c2)cc1[N+](=O)[O-] .
Ans. inactive

Qu. # fetch the recorded call for COc1cc(/C=C\c2nnc(/C=C\c3ccc(O)c(OC)c3)s2)ccc1O here
Ans. inactive

====

System: NCI-H23
Assay: NCI tumour cell line growth inhibition, 48 h
The source made the active and inactive calls. No stated cut-off is given here; in the data, active = GI50 up to about 1.1 µM and inactive = higher.
Hi! Could you answer with just one of these? class 1 (active), class 0 (inactive)

Example entries begin here.
CCCCc1ccc(Nc2nc(S)c3[nH]cnc3n2)cc1 ... class 0
O=C(NC1CCN(Cc2ccccc2)CC1)c1cccc(I)c1 ... class 0
Nc1nc(SCc2ccccc2Cl)cc(C(=O)O)n1 ... class 0
COc1cccc(-c2cc(=O)c3ccc(C)nc3[nH]2)c1 ... class 1

Qu. Assay outcome for CC(C)=C[C@H]1CCC2(OCCO2)[C@]1(C)CO : what was it?
Ans. class 0

Qu. What classification did O=C1C(NCCO)=C(N2CC2)C(=O)C(NCCO)=C1N1CC1 end up with in this test?
Ans. class 0

Qu. Can you look up the reported call for C1CCNCC1.O=C1NC(=S)N/C1=C/c1ccccc1O for me?
Ans. class 0

Qu. Name the outcome recorded for CC1(O)CCC2(C)C(=O)C1(C)CCC21OCCO1 (stereo unspecified) in the assay.
Ans. class 0

Qu. Check the results log: what was the call for Cc1ccc2nc3[nH]nc(N)c3nc2c1 ?
Ans. class 0

Qu. So what was the verdict on C=C(C)C1Cc2cc(C(C)=O)ccc2O1 (stereo unspecified) in this test?
Ans. class 0

Qu. Please indicate how the test categorized O=[N+]([O-])c1cccc(/N=N/c2c(O)ccc3ccccc23)c1 .
Ans. class 0

Qu. Just curious, what result did Brc1ccc2c(-c3nc(-c4c[nH]c5ccccc45)cs3)c[nH]c2c1 get here?
Ans. class 0

Qu. What outcome does the record of this test show for CCC(C)C(N)C(=O)NC(CC(N)=O)C(=O)NC(CC(C)C)C(=O)NC(CCCCN)C(=O)NC(C)C(=O)NC(CC(C)C)C(=O)NC(C)C(=O)NC(C)C(=O)NC(CC(C)C)C(=O)NC(C)C(=O)NC(CCCCN)C(=O)NC(CCCCN)C(=O)NC(C(=O)NC(CC(C)C)C(N)=O)C(C)CC (stereo unspecified) ?
Ans. class 0

Qu. Please let me know the test result on file for CCOC(=O)C(Cc1ccc(N=NN(C)C)cc1)NC(=O)CC1c2ccccc2-c2ccccc21 (stereo unspecified) .
Ans. class 0

Qu. Entry NS(=O)(=O)c1nnc(NS(=O)(=O)c2ccc([N+](=O)[O-])cc2)s1 : call = ?
Ans. class 0

Qu. Call for entry COc1ccc(CN(Cc2ccc(OC)cc2)C(=O)CC2(O)C=CCC2)cc1 (stereo unspecified) :
Ans. class 0

Qu. Lab log entry: Cc1csc(CP(=O)(OC(C)C)OC(C)C)n1 — outcome as called in the assay?
Ans. class 0

Qu. // outcome(item) with item = N#C/C(=C(/S)Nc1ccccc1)c1nc2ccccc2[nH]1
Ans. class 0

Qu. Would you mind telling me which call this test gave NC(Cc1ccc(OCc2ccccc2)cn1)C(=O)OCc1ccccc1 (stereo unspecified) ?
Ans. class 0

Qu. Record lookup: outcome of this test for C=C/C(C)=C\CC1[C@](C)(O)CC[C@H]2C(C)(C)C(O)CC[C@]12C (stereo partly specified) ?
Ans. class 0

Qu. Could you check what this test reported for CCOC(=O)c1sc2nc(SC)nc3c2c1NCN3c1ccc(F)c(F)c1 ?
Ans. class 0
